Origin of values: paper PMC10436550

- measurement protocol: Toxicokinetics, plasma LPM3480392 after intravenous administration
- Assay type: in vivo, Sprague Dawley (SD) rats
- applied conditions: female, Sprague-Dawley, rat, plasma, iv, 0.6 mg/kg/day, 0.6 mg/kg/day iv; 1st dosing day; F; read-out: AUC0–12h
endpoint label: AUC(0-t) (µg·h/mL)
Give bare numbers, in µg·h/mL.

[Q] Please report AUC(0-t) for the following molecule: Fc1ccc([C@]2(CCNCc3cccc(Cl)c3)CCO[C@]3(CCOC3)C2)nc1
[A] 0.319

====

- measurement protocol: Toxicokinetics, plasma LPM3480392 after intravenous administration
- Format: in vivo, Sprague Dawley (SD) rats
- applied conditions: male, Sprague-Dawley, rat, plasma, intravenous, 0.6 mg/kg/day, 0.6 mg/kg/day iv; 1st dosing day; M; read-out: C2min (The 1st dosing)
endpoint label: concentration at 2 min (ng/mL)
Give bare numbers, in ng/mL.

[Q] Consider the molecule Fc1ccc([C@]2(CCNCc3cccc(Cl)c3)CCO[C@]3(CCOC3)C2)nc1 and give its recorded concentration at 2 min.
[A] 98.1

====

- measurement protocol: Toxicokinetics, plasma LPM3480392 after intravenous administration
- Format: in vivo, Sprague Dawley (SD) rats
- applied conditions: both sexes, Sprague-Dawley, rat, plasma, iv, 1.2 mg/kg/day, female + male; 1.2 mg/kg/day; Day 1; read-out: Mean AUC0–12h
endpoint label: AUC(0-t) (ng·h/mL)
Answers are plain numbers, in ng·h/mL.

[Q] Respond only with AUC(0-t) recorded for Fc1ccc([C@]2(CCNCc3cccc(Cl)c3)CCO[C@]3(CCOC3)C2)nc1
[A] 663

====

- measurement protocol: Toxicokinetics, plasma LPM3480392 after intravenous administration
- Type: in vivo, Sprague Dawley (SD) rats
- applied conditions: male, Sprague-Dawley, rat, plasma, intravenous, 2.4 mg/kg/day, 2.4 mg/kg/day iv; 1st dosing day; M; read-out: C2min (The 3rd dosing)
endpoint label: concentration at 2 min (ng/mL)
One number for each entry, in ng/mL.

[Q] // Input: Fc1ccc([C@]2(CCNCc3cccc(Cl)c3)CCO[C@]3(CCOC3)C2)nc1 . Output its concentration at 2 min only.
[A] 225

====

- measurement protocol: Toxicokinetics, plasma LPM3480392 after intravenous administration
- Format: in vivo, Sprague Dawley (SD) rats
- applied conditions: both sexes, Sprague-Dawley, rat, plasma, intravenous, 1.2 mg/kg/day, 1.2 mg/kg/day iv; 1st dosing day; F + M; read-out: C2min (The 1st dosing)
endpoint label: concentration at 2 min

[Q] Please list concentration at 2 min recorded for the compound Fc1ccc([C@]2(CCNCc3cccc(Cl)c3)CCO[C@]3(CCOC3)C2)nc1
[A] 175 ng/mL

====

- measurement protocol: Toxicokinetics, plasma LPM3480392 after intravenous administration
- Type: in vivo, Sprague Dawley (SD) rats
- applied conditions: both sexes, Sprague-Dawley, rat, plasma, intravenous, 1.2 mg/kg/day, 1.2 mg/kg/day iv; 1st dosing day; F + M; read-out: C2min (The 3rd dosing)
- Procedure: Blood samples from animals in LPM3480392 groups were collected at predose and 2 min, 30 min, 1 h and 4 h postdose of the 1st dosing on Days 1 and 28; at 2 min and 4 h postdose of the 2nd dosing on Days 1 and 28; at 2 min, 1 h and 4 h postdose the 3rd dosing on Days 1 and 28. Animals in control group were sampled at predose and 2 min postdose of the 1st dosing on Days 1 and 28. […] TK parameters (AUC, Cmax, Tmax) were calculated by Phoenix WinNonlin (Pharsight) 8.2. […]
endpoint label: concentration at 2 min (ng/mL)
Give bare numbers, in ng/mL.

[Q] Retrieve concentration at 2 min measured for Fc1ccc([C@]2(CCNCc3cccc(Cl)c3)CCO[C@]3(CCOC3)C2)nc1 and print it.
[A] 148
